Biological target: Casein kinase I isoform delta (Homo sapiens, UniProt P48730)
Sequence (P48730 whole entry, the tested form may be a part, canonical isoform): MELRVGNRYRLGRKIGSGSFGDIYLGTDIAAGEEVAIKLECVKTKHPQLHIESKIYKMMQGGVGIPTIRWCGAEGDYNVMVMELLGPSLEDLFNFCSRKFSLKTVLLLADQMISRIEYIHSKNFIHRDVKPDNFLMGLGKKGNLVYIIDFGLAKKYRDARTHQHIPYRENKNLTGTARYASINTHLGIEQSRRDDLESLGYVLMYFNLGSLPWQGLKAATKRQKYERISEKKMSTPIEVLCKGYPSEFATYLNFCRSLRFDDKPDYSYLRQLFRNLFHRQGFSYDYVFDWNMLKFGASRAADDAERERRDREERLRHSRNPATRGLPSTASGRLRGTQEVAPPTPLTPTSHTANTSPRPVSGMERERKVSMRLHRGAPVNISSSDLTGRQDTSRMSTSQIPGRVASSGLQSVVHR
Assay: Inhibition of CK1delta by Cherenkov counting in presence of 20 uM ATP
pIC50: −log10 of the molar value.
reported_endpoint: pIC50

{"columns": ["substance_smiles", "result_value"],
 "data": [
  ["CC(C)c1onc(-c2ccc(F)cc2)c1-c1ccncc1", 6.64]
]}

* * *

Target: Mitogen-activated protein kinase 14 (Homo sapiens, UniProt Q16539)
Sequence (Q16539 whole entry): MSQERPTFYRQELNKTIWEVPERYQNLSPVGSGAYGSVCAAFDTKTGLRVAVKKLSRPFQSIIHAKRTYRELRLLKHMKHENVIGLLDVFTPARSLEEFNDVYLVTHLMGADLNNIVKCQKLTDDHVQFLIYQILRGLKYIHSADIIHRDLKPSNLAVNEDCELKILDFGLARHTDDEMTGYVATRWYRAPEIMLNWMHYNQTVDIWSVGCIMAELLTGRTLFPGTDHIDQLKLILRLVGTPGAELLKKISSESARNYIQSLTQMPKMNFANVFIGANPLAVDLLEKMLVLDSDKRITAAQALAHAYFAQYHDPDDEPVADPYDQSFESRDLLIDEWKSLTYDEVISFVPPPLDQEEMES
Assay: Inhibition of p38alpha by Cherenkov counting
reported_endpoint: IC50 (µM)

{"columns": ["molecule", "reported_endpoint", "unit_spec", "result_value"],
 "data": [
  ["CC(=O)Nc1cc(-c2c(-c3ccc(F)cc3)noc2C(C)C)ccn1", "IC50", "µM", 0.3],
  ["COc1ccc(/C=C/C(=O)Nc2cc(-c3[nH]c([S+](C)[O-])nc3-c3ccc(F)cc3)ccn2)c(OC)c1 (stereo not given)", "IC50", "µM", 0.041],
  ["CC(C)c1onc(-c2ccc(F)cc2)c1-c1ccnc(N[C@H](C)c2ccccc2)c1", "IC50", "µM", 0.45],
  ["CC(C)c1onc(-c2ccc(F)cc2)c1-c1ccnc(NC(=O)Cc2ccc(F)cc2)c1", "IC50", "µM", 1.56],
  ["CC(C)c1onc(-c2ccc(F)cc2)c1-c1ccnc(N[C@@H](C)c2ccccc2)c1", "IC50", "µM", 0.006],
  ["CCC(C)Nc1cc(-c2c(-c3ccc(F)cc3)noc2C(C)C)ccn1 (stereo not given)", "IC50", "µM", 0.03],
  ["CC(Oc1ccccc1)C(=O)Nc1cc(-c2c(-c3ccc(F)cc3)noc2C(C)C)ccn1 (racemic)", "IC50", "µM", 0.89],
  ["COc1ccc(/C=C/C(=O)Nc2cc(-c3c(-c4ccc(F)cc4)noc3C(C)C)ccn2)c(OC)c1", "IC50", "µM", 2.52],
  ["CC(C)c1onc(-c2ccc(F)cc2)c1-c1ccnc(NC2CCOCC2)c1", "IC50", "µM", 0.06],
  ["COc1ccc(/C=C/C(=O)Nc2cc(-c3[nH]c(SC)nc3-c3ccc(F)cc3)ccn2)c(OC)c1", "IC50", "µM", 0.019]
]}

* * *

Target: Casein kinase I isoform delta (Homo sapiens, UniProt P48730)
Experiment: Inhibition of human CK1delta
pIC50: −log10 of the molar value.
reported_endpoint: pIC50

{"columns": ["substance_smiles", "assayed_target", "result_value"],
 "data": [
  ["COc1cc(OC)c(C=C2C(O)=Nc3ccccc32)c(OC)c1", "Casein kinase I isoform delta (Homo sapiens, UniProt P48730)", 6.00]
]}

* * *

Molecular target: Casein kinase I isoform delta (Homo sapiens, UniProt P48730)
Test: Inhibition of recombinant CK1delta kinase domain by Cherenkov counting
pIC50: −log10 of the molar value.
reported_endpoint: pIC50

{"columns": ["molecule", "assayed_target", "result_value"],
 "data": [
  ["COc1ccc(/C=C/C(=O)Nc2cc(-c3[nH]c([S+](C)[O-])nc3-c3ccc(F)cc3)ccn2)c(OC)c1 (stereo not drawn)", "Casein kinase I isoform delta (Homo sapiens, UniProt P48730)", 8.30],
  ["CC(C)c1onc(-c2ccc(F)cc2)c1-c1ccnc(N[C@@H](C)c2ccccc2)c1", "Casein kinase I isoform delta (Homo sapiens, UniProt P48730)", 5.80],
  ["CC(C)c1onc(-c2ccc(F)cc2)c1-c1ccnc(NC(=O)Cc2ccc(F)cc2)c1", "Casein kinase I isoform delta (Homo sapiens, UniProt P48730)", 6.96],
  ["CC(C)c1onc(-c2ccc(F)cc2)c1-c1ccnc(NC2CCOCC2)c1", "Casein kinase I isoform delta (Homo sapiens, UniProt P48730)", 5.60],
  ["COc1ccc(/C=C/C(=O)Nc2cc(-c3c(-c4ccc(F)cc4)noc3C(C)C)ccn2)c(OC)c1", "Casein kinase I isoform delta (Homo sapiens, UniProt P48730)", 7.48],
  ["CC(=O)Nc1cc(-c2c(-c3ccc(F)cc3)noc2C(C)C)ccn1", "Casein kinase I isoform delta (Homo sapiens, UniProt P48730)", 6.15],
  ["CC(Oc1ccccc1)C(=O)Nc1cc(-c2c(-c3ccc(F)cc3)noc2C(C)C)ccn1 (racemic)", "Casein kinase I isoform delta (Homo sapiens, UniProt P48730)", 6.09],
  ["COc1ccc(/C=C/C(=O)Nc2cc(-c3[nH]c(SC)nc3-c3ccc(F)cc3)ccn2)c(OC)c1", "Casein kinase I isoform delta (Homo sapiens, UniProt P48730)", 8.40]
]}

* * *

# Lookup of reported IC50 keyed by entry
Molecular target: Casein kinase I isoform delta (Rattus norvegicus, UniProt Q06486)
Sequence (Q06486 whole entry, the tested form may be a part, canonical isoform): as the sequence (P48730 whole entry, the tested form may be a part, canonical isoform) above, with I381V counted along it
Assay: Inhibition of GST-fused rat CK1delta by Cherenkov counting in presence of 20 uM ATP
reported_endpoint: IC50 (nM)

{"columns": ["compound", "reported_endpoint", "result_value"],
 "data": [
  ["COc1ccc(/C=C/C(=O)Nc2cc(-c3c(-c4ccc(F)cc4)noc3C(C)C)ccn2)c(OC)c1", "IC50", 47],
  ["CC(C)c1onc(-c2ccc(F)cc2)c1-c1ccnc(NC(=O)Cc2ccc(F)cc2)c1", "IC50", 90],
  ["COc1ccc(/C=C/C(=O)Nc2cc(-c3[nH]c([S+](C)[O-])nc3-c3ccc(F)cc3)ccn2)c(OC)c1 (configuration not stated)", "IC50", 11],
  ["CC(C)c1onc(-c2ccc(F)cc2)c1-c1ccncc1", "IC50", 230],
  ["CC(Oc1ccccc1)C(=O)Nc1cc(-c2c(-c3ccc(F)cc3)noc2C(C)C)ccn1 (racemic)", "IC50", 340],
  ["CC(=O)Nc1cc(-c2c(-c3ccc(F)cc3)noc2C(C)C)ccn1", "IC50", 330],
  ["COc1ccc(/C=C/C(=O)Nc2cc(-c3[nH]c(SC)nc3-c3ccc(F)cc3)ccn2)c(OC)c1", "IC50", 5]
]}

* * *

Target: Casein kinase I isoform delta (Oryctolagus cuniculus, UniProt P81123)
Sequence (P81123 whole entry, canonical isoform): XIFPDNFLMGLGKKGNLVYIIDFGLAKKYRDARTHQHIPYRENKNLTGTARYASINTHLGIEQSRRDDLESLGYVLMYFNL
Assay: Inhibition of rabbit skeletal muscle CK1delta by liquid scintillation counting

{"columns": ["substance_smiles", "unit_spec", "IC50"],
 "data": [
  ["NCCNS(=O)(=O)c1ccc(Cl)c2ccncc12", "µM", 10]
]}

Entry source: ChEMBL document CHEMBL1155278
